system: P. falciparum 3D7; test: Asexual blood-stage growth inhibition assay, SYBR green method; type: cell-based; conditions: Plasmodium falciparum, 3D7, 72 h, ring-stage 3D7 parasites
pEC50: −log10 of the molar value.
Is pEC50 at least 9? Then t. If not, f.

Task: Item Cn1nc2c(=O)n(C3CC3)ccc2c1[C@](O)(c1ccc(C(F)(F)F)nc1)C(F)(F)F (single isomer, unassigned) with pEC50 of 9 or above?
Output: f

Task: Item Cn1nc2c(=O)n(C3CC3)ccc2c1[C@](O)(c1ccc(C(F)(F)F)nc1)C1CC1 (single isomer, unassigned) with pEC50 of 9 or above?
Output: f

Task: Item CCn1ccc2c([C@](O)(c3ccc(C(F)(F)F)nc3)C3CC3)n(C)nc2c1=O (single isomer, unassigned) with pEC50 of 9 or above?
Output: f

Task: Item CCn1ncc2c([C@@](O)(CC)c3ccc(C(F)(F)F)c(Cl)c3)n(C)nc2c1=O (single isomer, unassigned) with pEC50 of 9 or above?
Output: t

Task: Item CC[C@@](O)(c1cnc(C(F)(F)F)c(Cl)c1)c1c2cnn(C3CC3)c(=O)c2nn1C (single isomer, unassigned) with pEC50 of 9 or above?
Output: f

Task: Item CC[C@@](O)(c1ccc(F)c(Cl)c1)c1c2ccn(C3CC3)c(=O)c2nn1C (single isomer, unassigned) with pEC50 of 9 or above?
Output: t

Task: Item Cn1nc2c(=O)n(C3CC3)ncc2c1[C@](O)(c1cnc(C(F)(F)F)c(Cl)c1)C1CC1 (single isomer, unassigned) with pEC50 of 9 or above?
Output: f

###

Please provide measured pEC50 for the entries that follow.
system: P. falciparum 3D7; assay: Asexual blood-stage growth inhibition assay, SYBR green method; format: cell-based; conditions: Plasmodium falciparum, 3D7, 72 h, ring-stage 3D7 parasites
To interpret pEC50, take it as minus log10 of a concentration measured in moles per litre.

Task: Query: pEC50; subject: CC[C@@](O)(c1ccc(C(F)(F)F)c(C#N)c1)c1c2cnn(C3CC3)c(=O)c2nn1C (single isomer, unassigned) [2-5]
Output: 8.89

Task: Query: pEC50; subject: CCn1ccc2c([C@](O)(c3ccc(F)c(Cl)c3)C3CC3)n(C)nc2c1=O (single isomer, unassigned) [1-38]
Output: 8.82

Task: Query: pEC50; subject: Cn1nc2c(=O)n(C3CC3)cnc2c1[C@](N)(c1ccc(C(F)(F)F)c(Cl)c1)C(F)(F)F (single isomer, unassigned) [5-51]
Output: 9.15

Task: Query: pEC50; subject: Cn1nc2c(=O)n(C3CC3)ccc2c1[C@](C)(O)c1ccc(F)c(Cl)c1 (single isomer, unassigned) [1-9]
Output: 9.04

Task: Query: pEC50; subject: Cn1nc2c(=O)n(C3CC3)ccc2c1[C@](N)(c1ccc(C(F)(F)F)c(C#N)c1)C(F)(F)F (single isomer, unassigned) [5-45]
Output: 9.07

Task: Query: pEC50; subject: CC[C@@](O)(c1ccc(F)c(Cl)c1)c1c2cnn(C3CC3)c(=O)c2nn1C (single isomer, unassigned) [2-17]
Output: 8.77
